methodDescription: Antioxidant activity assessed as ascorbic acid equivalent ferric ion reducing activity per 100 gram at 200 ug/ml by FRAP assay
Format: functional
valueType: Activity (mmol)
# unit: mmol | format: bare number

Use these answered entries as a reference point.
- querySmiles: "Cc1ccc(-n2nc(C)c3c2OC[C@H]2COc4ccc5c(C)cc(=O)oc5c4[C@@H]32)cc1"
  Activity [mmol]: 213
- querySmiles: "Cc1cc(=O)oc2c3c(ccc12)OC[C@H]1[C@@H]3c2c(-c3ccccc3)nn(-c3ccccc3)c2OC1(C)C"
  Activity [mmol]: 160
- querySmiles: "Cc1nn(-c2ccccc2Cl)c2c1[C@@H]1c3c(ccc4c(C)cc(=O)oc34)OC[C@@H]1C(C)(C)O2"
  Activity [mmol]: 210

// lookup Activity for Cc1nn(-c2cccc(Cl)c2)c2c1[C@@H]1c3c(ccc4c(C)cc(=O)oc34)OC[C@@H]1CO2
158

====

System: Vibrio cholerae
methodDescription: Antibacterial activity against Vibrio cholerae MTCC 3906 after 24 hrs by broth microdilution method
Assay type: functional
conditionLabel: MTCC 3906, 24 h
Measured MIC accompanies every entry in the list below.
# unit: µg/mL | format: bare number

// lookup MIC for CCn1cc(C(=O)O)c(=O)c2cc(F)c(N3CCNCC3)cc21
10

// lookup MIC for Cc1nn(-c2ccccc2Cl)c2c1[C@@H]1c3cc4ccccc4nc3SC[C@@H]1CO2
250

// lookup MIC for Cc1ccc(-n2nc(C)c3c2OC[C@H]2CSc4nc5c(C)cccc5cc4[C@@H]32)cc1
125

// lookup MIC for Cc1nn(-c2cccc(Cl)c2)c2c1[C@@H]1c3cc4cccc(C)c4nc3SC[C@@H]1C(C)(C)O2 (single isomer, unassigned)
100

// lookup MIC for O=C(N[C@H](CO)[C@H](O)c1ccc([N+](=O)[O-])cc1)C(Cl)Cl
50

// lookup MIC for Cc1nn(-c2ccccc2Cl)c2c1[C@@H]1c3cc4cccc(C)c4nc3SC[C@@H]1C(C)(C)O2 (single isomer, unassigned)
200

// lookup MIC for Cc1nn(-c2ccccc2Cl)c2c1[C@@H]1c3c(ccc4c(C)cc(=O)oc34)OC[C@@H]1C(C)(C)O2
250

// lookup MIC for Cc1ccc(-n2nc(C)c3c2OC[C@H]2CSc4nc5ccccc5cc4[C@@H]32)cc1
200

====

System: Bacillus subtilis
methodDescription: Antibacterial activity against Bacillus subtilis MTCC 441 after 24 hrs by broth microdilution method
Type: functional
conditionLabel: MTCC 441, 24 h
valueType: MIC (µg/mL)
# unit: µg/mL | format: bare number

- querySmiles: "Cc1nn(-c2ccccc2Cl)c2c1[C@@H]1c3c(ccc4c(C)cc(=O)oc34)OC[C@@H]1CO2"
  readingUnit: "µg/mL"
  MIC: 62.5
- querySmiles: "Cc1nn(-c2cc(Cl)ccc2Cl)c2c1[C@@H]1c3cc4cccc(C)c4nc3SC[C@@H]1CO2"
  readingUnit: "µg/mL"
  MIC: 100
- querySmiles: "Cc1nn(-c2ccccc2)c2c1[C@@H]1c3c(ccc4c(C)cc(=O)oc34)OC[C@@H]1CO2"
  readingUnit: "µg/mL"
  MIC: 500
- querySmiles: "Cc1nn(-c2cccc(Cl)c2)c2c1[C@@H]1c3c(ccc4c(C)cc(=O)oc34)OC[C@@H]1CO2"
  readingUnit: "µg/mL"
  MIC: 200
- querySmiles: "Cc1nn(-c2cccc(Cl)c2)c2c1[C@@H]1c3c(ccc4c(C)cc(=O)oc34)OC[C@@H]1C(C)(C)O2"
  readingUnit: "µg/mL"
  MIC: 200

// lookup MIC for Cc1ccc(-n2nc(C)c3c2OC[C@H]2CSc4nc5ccccc5cc4[C@@H]32)cc1
200

Values were extracted from ChEMBL document CHEMBL2331438.
